B1: Azoarcus group I ribozyme (parent)
chain: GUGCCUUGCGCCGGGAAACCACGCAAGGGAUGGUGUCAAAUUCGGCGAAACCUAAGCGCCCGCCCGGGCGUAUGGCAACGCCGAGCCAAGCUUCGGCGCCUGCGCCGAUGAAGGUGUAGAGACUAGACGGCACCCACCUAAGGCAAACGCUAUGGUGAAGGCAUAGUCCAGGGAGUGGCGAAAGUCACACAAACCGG

Variants of: B1
Assay: reverse-splicing fitness (ratio to wild type); higher = more active; in vitro selection; Mg2+ level not given
Quick rule: reverse-splicing fitness of at least 0.008 means MET, below that means NOT MET.

As a guide, the following entries are already answered.
C82G A111U A145U C150G | MET
C82G A111C A120C A145C C169G U176C | MET
C82A A111C A120C C150G C169G U176G | NOT MET
C82G A111U A120C A145G | MET
A111U A120C C150G C169G U176G | NOT MET

Request: Is it the case that C82U A111U A120C A145U C150U C169A has reverse-splicing fitness reaching or exceeding 0.008?
Response: MET

Request: reverse-splicing fitness >= 0.008 for C82U A111U A120G A145C C150A U176C ?
Response: MET

Request: Answer whether reverse-splicing fitness of C82A A111U A120G A145G C150A C169G is greater than or equal to 0.008.
Response: MET

Request: Is it the case that C82A A111C A120C A145C C169U U176A has reverse-splicing fitness reaching or exceeding 0.008?
Response: MET

Request: Please tell me: is the variant C82G A111U A120C A145G C150G C169G U176C at or over 0.008 in terms of reverse-splicing fitness?
Response: MET

Request: Record A111U A120G A145G C150U C169U U176A ; criterion: reverse-splicing fitness no lower than 0.008. Met?
Response: MET

Request: Quick check, reverse-splicing fitness >= 0.008? C82U A111C A120U C150U
Response: MET

Request: Answer whether reverse-splicing fitness of C82U A120G A145C C150G C169G U176C is greater than or equal to 0.008.
Response: NOT MET

Cited source for all entries: the RNAGym collection of RNA variant scans (doi:10.1093/molbev/msab373)
